test: Single dose pharmacokinetic study of transvaginal terbutaline gel, serum terbutaline by GC-MS; assay type: in vivo, human; details: female, human, 0.2 % (w/w), 0.2% gel, serum, mean ± SEM, n=10, read-out: AUC0 to 48
assayEndpoint: AUC(0-t) (ng·h/mL)
Give the quantity in ng·h/mL, number only.

compound CC(C)(C)NCC(O)c1cc(O)cc(O)c1 (stereo not shown) [Terbutaline] , AUC(0-t) observed: 8.01

====

assay: Single dose pharmacokinetic study of transvaginal terbutaline gel, serum terbutaline by GC-MS; assay type: in vivo, human; conditions: female, human, 0.1 % (w/w), 0.1% gel, serum, mean ± SEM, n=10
assayEndpoint: Cmax (ng/mL)
Give the quantity in ng/mL, number only.

compound CC(C)(C)NCC(O)c1cc(O)cc(O)c1 (stereo not shown) [Terbutaline] , Cmax observed: 0.117

====

assay: Single dose pharmacokinetic study of transvaginal terbutaline gel, serum terbutaline by GC-MS; type: in vivo, human; settings: female, human, 0.1 % (w/w), 0.1% gel, serum, mean ± SEM, n=10, read-out: AUC0 to 48
assayEndpoint: AUC(0-t) (ng·h/mL)
Give the quantity in ng·h/mL, number only.

molecule CC(C)(C)NCC(O)c1cc(O)cc(O)c1 (stereo not shown) , AUC(0-t) observed: 2.28

====

test: Single dose pharmacokinetic study of transvaginal terbutaline gel, serum terbutaline by GC-MS; format: in vivo, human; settings: female, human, 0.4 % (w/w), 0.4% gel, serum, mean ± SEM, n=10
assayEndpoint: Cmax
Answer with the value and then the unit.

compound CC(C)(C)NCC(O)c1cc(O)cc(O)c1 (stereo not shown) , Cmax observed: 0.479 ng/mL

====

test: Single dose pharmacokinetic study of transvaginal terbutaline gel, serum terbutaline by GC-MS; type: in vivo, human; conditions: female, human, 0.2 % (w/w), 0.2% gel, serum, mean ± SEM, n=10, read-out: t½ (converted)
assayEndpoint: half-life (min)
Give the quantity in min, number only.

compound CC(C)(C)NCC(O)c1cc(O)cc(O)c1 (stereo not shown) [Terbutaline] , half-life observed: 1740

====

assay: Single dose pharmacokinetic study of transvaginal terbutaline gel, serum terbutaline by GC-MS; assay type: in vivo, human; details: female, human, 0.4 % (w/w), 0.4% gel, serum, mean ± SEM, n=10, read-out: t½ (converted)
assayEndpoint: half-life (h)
Give the quantity in h, number only.

compound CC(C)(C)NCC(O)c1cc(O)cc(O)c1 (stereo not shown) , half-life observed: 24

====

test: Single dose pharmacokinetic study of transvaginal terbutaline gel, serum terbutaline by GC-MS; assay type: in vivo, human; conditions: female, human, 0.2 % (w/w), 0.2% gel, serum, mean ± SEM, n=10
assayEndpoint: Cmax (ng/mL)
Give the quantity in ng/mL, number only.

molecule CC(C)(C)NCC(O)c1cc(O)cc(O)c1 (stereo not shown) , Cmax observed: 0.297

====

Test: Single dose pharmacokinetic study of transvaginal terbutaline gel, serum terbutaline by GC-MS
Type: in vivo, human
Conditions: female, human, serum, according to the dose administered (0.1%-0.4%), read-out: Mean t½ estimates
Experimental: The objective of this study was to assess the pharmacokinetic parameters of the terbutaline and polycarbophil composition following a single dose regimen comparing progressively increasing concentrations. […] Serum terbutaline concentrations were determined using gas chromatography-mass spectrometry. […] Both the single and multiple dose studies discussed in the preceding examples also evaluated the 0.8% w/w concentration. […]
assayEndpoint: half-life

compound CC(C)(C)NCC(O)c1cc(O)cc(O)c1 (stereo not shown) , half-life observed: 18 to 29 h

====

experiment: Single dose pharmacokinetic study of transvaginal terbutaline gel, serum terbutaline by GC-MS; assay type: in vivo, human; settings: female, human, 0.8 % w/w, 0.8% gel, serum, mean ± SEM, n=8
assayEndpoint: Cmax (ng/mL)
Give the quantity in ng/mL, number only.

compound CC(C)(C)NCC(O)c1cc(O)cc(O)c1 (stereo not shown) , Cmax observed: 0.787

====

experiment: Single dose pharmacokinetic study of transvaginal terbutaline gel, serum terbutaline by GC-MS; type: in vivo, human; settings: female, human, 0.2 % (w/w), 0.2% gel, serum, mean ± SEM, n=10
assayEndpoint: Tmax (h)
Give the quantity in h, number only.

compound CC(C)(C)NCC(O)c1cc(O)cc(O)c1 (stereo not shown) , Tmax observed: 13

====

assay: Single dose pharmacokinetic study of transvaginal terbutaline gel, serum terbutaline by GC-MS; type: in vivo, human; conditions: female, human, serum, other: transvaginal, 0.4 % (w/w), 0.4% concentration, mean±SEM
assayEndpoint: concentration at 48 h (ng/mL)
Give the quantity in ng/mL, number only.

molecule CC(C)(C)NCC(O)c1cc(O)cc(O)c1 (stereo not shown) [Terbutaline] , concentration at 48 h observed: 0.113
